These data points were gathered from paper PMC3368261.

- testDetails: physchem
- Assay type: physicochemical
Give measured logD for each item. Keep answers brief.
Answer as a number with no unit attached.

The compound CN1CCN(c2cc(Nc3cc(C4CC4)[nH]n3)nc(-c3ccccc3)n2)CC1 [Compound 11b] showed logD equal to 3.6

The compound c1ccc(-c2nc(Nc3cc(C4CC4)[nH]n3)cc(OCCN3CCCC3)n2)cc1 [Compound 11f] showed logD equal to 3.4

The compound CN(C)[C@@H]1CCN(c2cc(Nc3cc(C4CC4)[nH]n3)nc(-c3ccccc3)n2)C1 [Compound 11e] showed logD equal to 3.8

The compound CN1CCC(Nc2cc(Nc3cc(C4CC4)[nH]n3)nc(-c3ccccc3)n2)CC1 [Compound 11d] showed logD equal to 2.3

The compound CN(C)CCNc1cc(Nc2cc(C3CC3)[nH]n2)nc(-c2ccccc2)n1 [Compound 11a] showed logD equal to 3.7

The compound CN1CCC(CNc2cc(Nc3cc(C4CC4)[nH]n3)nc(-c3ccccc3)n2)CC1 [Compound 11c] showed logD equal to 2.3
